System: HEK-293T
Test: Multiplex assay against HEK293T
Type: toxicity, cell-based
Conditions: human, 12 h, 10 µM, compound concentration 10 uM, replicate 2
Mark met only when Population Pyknosed Nuclei (%) stays strictly below 50%. Values equal to the cut-off are not met.

>>> class_label("O=C(c1cc2c(cc1F)OC(c1ccc(F)cc1)(c1ccc(Cl)cc1Cl)O2)N1CCOCC1 (configuration not stated)")
"not met"
>>> class_label("CNC(=O)Nc1ccc(-c2nc(N3CC4CCC(C3)O4)c3cnn(C4CCC5(CC4)OCCO5)c3n2)cc1")
"not met"
>>> class_label("Cc1ccc(C)c(Oc2ccncc2C(=O)N2CCN(C3CC3)c3ccccc32)c1")
"not met"

Next, consider the following compound.
Exercise: Problem: For the compound Cc1cccc(CN2CCN(C(c3ccccc3)c3ccc(Cl)cc3)CC2)c1.Cl.Cl (configuration not stated) , is Population Pyknosed Nuclei (%) under 50%?
Solution: not met
